src = the supplement of paper PMC8728848

testTarget: GlcA(b1-3)Gal
assayDetails: glycan array binding signal (z-score within array); higher = stronger binding
measurementContext: glycan notation: IUPAC condensed, linker removed
This is one part of a sample in which the strongest signals are shown more often than they occur.

# binder, glycan array binding signal (z-score)
data = [
    ("HPA (Helix pomatia), Q575S3 (protein) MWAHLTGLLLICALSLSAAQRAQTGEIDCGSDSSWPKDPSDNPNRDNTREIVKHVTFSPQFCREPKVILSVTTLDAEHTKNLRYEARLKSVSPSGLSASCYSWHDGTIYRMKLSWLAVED", -0.262),
    ("TIM-1 (Mus musculus), AAL35774 (protein) MNQIQVFISGLILLLPGAVDSYVEVKGVVGHPVTLPCTYSTYRGITTTCWGRGQCPSSACQNTLIWTNGHRVTYQKSSRYNLKGHISEGDVSLTIENSVESDSGLYCCRVEIPGWFNDQKVTFSLQVKPEIPTRPPTRPTTTRPTATGRPTTISTRSTHVPTSIRVSTSTPPTSTHTWTHKPEPTTFCPHETTAEVTGIPSHTPTDWNGTVTSSGDTWSNHTEAIPPGKPQKNPTKGFYVGICIAALLLLLLVSTVAITRYILMKRKSASLSVVAFRVSKIEALQNAAVVHSRAEDNIYIVEDRP", 2.46),
    ("S100A12 (Homo sapiens), P80511 (protein) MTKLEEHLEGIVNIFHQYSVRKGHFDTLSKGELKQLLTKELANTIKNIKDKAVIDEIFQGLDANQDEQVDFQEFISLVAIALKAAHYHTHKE", 0.368),
]
